These data points were gathered from the Kinase Knowledgebase extract (Sharma et al. 2016).

tested_target: UniProt P00533
Sequence (P00533 whole entry, looked up): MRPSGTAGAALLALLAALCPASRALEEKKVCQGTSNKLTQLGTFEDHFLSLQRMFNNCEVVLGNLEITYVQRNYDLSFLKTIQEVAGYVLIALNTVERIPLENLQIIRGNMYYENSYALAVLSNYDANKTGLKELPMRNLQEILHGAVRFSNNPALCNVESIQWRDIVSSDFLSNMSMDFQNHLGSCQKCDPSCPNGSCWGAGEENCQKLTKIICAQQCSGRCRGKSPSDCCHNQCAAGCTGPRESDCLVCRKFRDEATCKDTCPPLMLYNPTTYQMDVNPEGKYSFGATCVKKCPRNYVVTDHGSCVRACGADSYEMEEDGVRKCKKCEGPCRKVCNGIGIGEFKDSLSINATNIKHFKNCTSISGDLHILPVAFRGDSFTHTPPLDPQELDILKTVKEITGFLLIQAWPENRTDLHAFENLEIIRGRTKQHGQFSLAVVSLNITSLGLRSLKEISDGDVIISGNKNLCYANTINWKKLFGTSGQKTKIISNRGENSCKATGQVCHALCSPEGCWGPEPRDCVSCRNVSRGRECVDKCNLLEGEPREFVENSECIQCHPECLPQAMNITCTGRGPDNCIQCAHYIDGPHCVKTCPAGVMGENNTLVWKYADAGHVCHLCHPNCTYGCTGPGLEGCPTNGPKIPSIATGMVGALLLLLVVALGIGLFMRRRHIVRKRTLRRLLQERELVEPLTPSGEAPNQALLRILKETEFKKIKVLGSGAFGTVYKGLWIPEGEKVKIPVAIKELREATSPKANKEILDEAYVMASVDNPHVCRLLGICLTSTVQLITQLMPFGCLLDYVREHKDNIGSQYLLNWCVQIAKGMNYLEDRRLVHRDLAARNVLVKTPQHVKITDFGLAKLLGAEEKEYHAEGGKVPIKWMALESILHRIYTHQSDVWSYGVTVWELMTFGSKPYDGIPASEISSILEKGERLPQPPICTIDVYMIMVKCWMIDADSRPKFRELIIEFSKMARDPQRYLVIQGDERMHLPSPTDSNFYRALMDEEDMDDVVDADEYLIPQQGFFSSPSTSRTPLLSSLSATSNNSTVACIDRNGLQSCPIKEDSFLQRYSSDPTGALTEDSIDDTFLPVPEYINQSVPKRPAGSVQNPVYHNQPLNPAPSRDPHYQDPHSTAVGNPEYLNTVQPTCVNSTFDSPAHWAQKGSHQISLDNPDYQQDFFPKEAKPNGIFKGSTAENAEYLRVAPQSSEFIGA
Field: label. Allowed values: Condition met (IC50 < 80 nM) or Condition not met (IC50 >= 80 nM).

smiles_repr: C=CC(=O)NCCCNc1cc2c(Nc3ccc(Br)cc3F)ncnc2cc1OCC1CCN(C(=O)CC)CC1
tested_target: UniProt P00533
discrete_label: Condition met
--
smiles_repr: C=CC(=O)Nc1cc2c(Nc3ccc(Br)cc3F)ncnc2cc1OCCOC(=O)CC(=O)O
tested_target: UniProt P00533
discrete_label: Condition not met
--
smiles_repr: C=CC(=O)Nc1cc2c(Nc3ccc(Br)cc3F)ncnc2cc1OCCNC(=O)CCCN(C)C
tested_target: UniProt P00533
discrete_label: Condition met
--
smiles_repr: C=CC(=O)Nc1cc2c(Nc3ccc(Br)cc3F)ncnc2cc1OCCNC(=O)CCC
tested_target: UniProt P00533
discrete_label: Condition met
--
smiles_repr: C=CC(=O)Nc1cc2c(Nc3ccc(Br)c(F)c3F)ncnc2cc1OCCNC(=O)CCCN(C)C
tested_target: UniProt P00533
discrete_label: Condition not met
--
smiles_repr: C=CC(=O)NCCCNc1cc2c(Nc3ccc(Br)cc3F)ncnc2cc1OCC1CCN(C)CC1
tested_target: UniProt P00533
discrete_label: Condition met
